# Lookup of reported MIC keyed by entry
test system: Staphylococcus aureus; experiment: Antimicrobial activity against antibiotic-resistant Staphylococcus aureus ATCC 33592 assessed as inhibition of visible growth measured after 20 to 24 hrs incubation by CLSI method; assay type: functional; settings: time 20-24 hrs
Observable: MIC (µg/mL)

test_smiles=O=C(O)c1ccc(-n2cc(CNc3cc(Cl)cc(Cl)c3)c(-c3cccc(F)c3)n2)cc1 op== observed_result=1
test_smiles=O=C(O)c1ccc(-n2cc(CNc3ccc(Br)c(Cl)c3)c(-c3ccc(F)c(F)c3)n2)cc1 op== observed_result=2
test_smiles=O=C(O)c1ccc(-n2cc(CNc3ccc(F)c(F)c3)c(-c3ccc(F)cc3)n2)cc1 op=> observed_result=32
test_smiles=O=C(O)c1ccc(-n2cc(CNc3ccc(Oc4ccccc4)cc3)c(-c3ccc(F)cc3)n2)cc1 op== observed_result=4
test_smiles=O=C(O)c1ccc(-n2cc(CNc3cc(Cl)ccc3Cl)c(-c3cccc(F)c3)n2)cc1 op== observed_result=32
test_smiles=O=C(O)c1ccc(-n2cc(CNc3ccc(F)c(Cl)c3)c(-c3cccc(F)c3)n2)cc1 op== observed_result=16
test_smiles=COc1ccc(NCc2cn(-c3ccc(C(=O)O)cc3)nc2-c2ccc(F)cc2)cc1C(F)(F)F op== observed_result=16
test_smiles=O=C(O)c1ccc(-n2cc(CNc3cc(F)c(F)c(F)c3)c(-c3ccc(F)c(F)c3)n2)cc1 op== observed_result=8
test_smiles=O=C(O)c1ccc(-n2cc(CNc3ccc(Br)cc3)c(-c3ccc(F)cc3)n2)cc1 op=> observed_result=32
test_smiles=O=C(O)c1ccc(-n2cc(CNc3cc(C(F)(F)F)cc(C(F)(F)F)c3)c(-c3ccc(F)c(F)c3)n2)cc1 op== observed_result=1
test_smiles=O=C(O)c1ccc(-n2cc(CNc3cc(Cl)c(F)cc3F)c(-c3ccc(F)c(F)c3)n2)cc1 op=> observed_result=32
test_smiles=O=C(O)c1ccc(-n2cc(CNc3ccc(Cl)c(Cl)c3)c(-c3ccc(F)c(F)c3)n2)cc1 op== observed_result=1
test_smiles=Cc1cc(NCc2cn(-c3ccc(C(=O)O)cc3)nc2-c2ccc(F)cc2)ccc1F op== observed_result=16
test_smiles=CC(C)c1ccc(NCc2cn(-c3ccc(C(=O)O)cc3)nc2-c2ccc(F)cc2)cc1 op== observed_result=8
test_smiles=O=C(O)c1ccc(-n2cc(CNc3ccc(Br)c(Cl)c3)c(-c3cccc(F)c3)n2)cc1 op== observed_result=1
test_smiles=O=C(O)c1ccc(-n2cc(CNc3cc(Br)cc(C(F)(F)F)c3)c(-c3ccc(F)c(F)c3)n2)cc1 op== observed_result=1
test_smiles=O=C(O)c1ccc(-n2cc(CNc3cc(F)c(F)c(F)c3)c(-c3ccc(F)cc3)n2)cc1 op=> observed_result=32
test_smiles=O=C(O)c1ccc(-n2cc(CNc3ccc(F)cc3)c(-c3ccc(F)c(F)c3)n2)cc1 op=> observed_result=32
test_smiles=O=C(O)c1ccc(-n2cc(CNc3cc(Cl)c(F)c(Cl)c3)c(-c3ccc(F)c(F)c3)n2)cc1 op== observed_result=1
test_smiles=O=C(O)c1ccc(-n2cc(CNc3ccc(F)c(F)c3)c(-c3cccc(F)c3)n2)cc1 op== observed_result=16
test_smiles=O=C(O)c1ccc(-n2cc(CNc3ccc(Cl)cc3)c(-c3ccc(F)c(F)c3)n2)cc1 op=> observed_result=32
test_smiles=O=C(O)c1ccc(-n2cc(CNc3cccc(OC(F)(F)F)c3)c(-c3ccc(F)c(F)c3)n2)cc1 op== observed_result=4
test_smiles=O=C(O)c1ccc(-n2cc(CNc3ccc(Oc4ccccc4)cc3)c(-c3ccc(F)c(F)c3)n2)cc1 op== observed_result=2
test_smiles=O=C(O)c1ccc(-n2cc(CNc3cc(F)c(F)c(F)c3)c(-c3cccc(F)c3)n2)cc1 op== observed_result=4
test_smiles=O=C(O)c1ccc(-n2cc(CNc3cccc(Cl)c3)c(-c3ccc(F)cc3)n2)cc1 op== observed_result=16
test_smiles=O=C(O)c1ccc(-n2cc(CNc3cc(Cl)cc(Cl)c3)c(-c3ccc(F)c(F)c3)n2)cc1 op== observed_result=2
test_smiles=NS(=O)(=O)c1ccc(NCc2cn(-c3ccc(C(=O)O)cc3)nc2-c2ccc(F)cc2)cc1 op=> observed_result=32
test_smiles=O=C(O)c1ccc(-n2cc(CNc3cc(Cl)cc(C(F)(F)F)c3)c(-c3cccc(F)c3)n2)cc1 op== observed_result=1
test_smiles=O=C(O)c1ccc(-n2cc(CNc3cc(Cl)c(F)c(Cl)c3)c(-c3ccc(F)cc3)n2)cc1 op== observed_result=1
test_smiles=O=C(O)c1ccc(-n2cc(CNc3ccc(Cl)c(C(F)(F)F)c3)c(-c3ccc(F)cc3)n2)cc1 op== observed_result=2
test_smiles=Cc1ccc(NCc2cn(-c3ccc(C(=O)O)cc3)nc2-c2ccc(F)cc2)cc1Cl op== observed_result=16
test_smiles=O=C(O)c1ccc(-n2cc(CNc3ccc(F)c(F)c3F)c(-c3ccc(F)c(F)c3)n2)cc1 op=> observed_result=32
test_smiles=O=C(O)c1ccc(-n2cc(CNc3ccc(Br)cc3)c(-c3cccc(F)c3)n2)cc1 op== observed_result=16
test_smiles=O=C(O)c1ccc(-n2cc(CNc3ccc(Oc4ccccc4)cc3)c(-c3cccc(F)c3)n2)cc1 op== observed_result=4
test_smiles=O=C(O)c1ccc(-n2cc(CNc3ccc(F)c(Cl)c3)c(-c3ccc(F)cc3)n2)cc1 op== observed_result=8
test_smiles=O=C(O)c1ccc(-n2cc(CNc3cc(Br)cc(C(F)(F)F)c3)c(-c3cccc(F)c3)n2)cc1 op== observed_result=2
